# Method: activity coefficient (dimensionless); of the first substance listed, at infinite dilution; xn = mol fraction of the nth substance listed
# Cond: 332.5 K; 101 kPa; Liquid; Chromatography; x1 = 0
So basically: is activity coefficient under 0.5? Then criterion met. Not under? Then criterion not met.

Query block: Confirm or reject: activity coefficient of CCCCCCC [heptane] + CCCCCCCCCC[N+]1(C)CCCC1.O=S(=O)([N-]S(=O)(=O)C(F)(F)F)C(F)(F)F lies strictly below 0.5
Result block: criterion not met

Query block: Confirm or reject: activity coefficient of c1ccncc1 [pyridine] + CCCCCCCCCC[N+]1(C)CCCC1.O=S(=O)([N-]S(=O)(=O)C(F)(F)F)C(F)(F)F lies strictly below 0.5
Result block: criterion met

* * *

# Method: activity coefficient (dimensionless); of the first substance listed, at infinite dilution; xn = mol fraction of the nth substance listed
# Cond: 332.5 K; 101 kPa; Liquid; Chromatography; x1 = 0
Listing: activity coefficient of selected molecules

Here is how some molecules turned out for activity coefficient.
c1ccsc1 [thiophene] + CCCCCCCCCC[N+]1(C)CCCC1.O=S(=O)([N-]S(=O)(=O)C(F)(F)F)C(F)(F)F ... 0.6
ClC(Cl)(Cl)Cl [tetrachloromethane] + CCCCCCCCCC[N+]1(C)CCCC1.O=S(=O)([N-]S(=O)(=O)C(F)(F)F)C(F)(F)F ... 1.12
ClC(Cl)Cl [trichloromethane] + CCCCCCCCCC[N+]1(C)CCCC1.O=S(=O)([N-]S(=O)(=O)C(F)(F)F)C(F)(F)F ... 0.39
CC1CCCCC1 [methylcyclohexane] + CCCCCCCCCC[N+]1(C)CCCC1.O=S(=O)([N-]S(=O)(=O)C(F)(F)F)C(F)(F)F ... 3.28

Next, consider the following molecule.
Query block: Provide measured activity coefficient value, entry: CCCO [propan-1-ol] + CCCCCCCCCC[N+]1(C)CCCC1.O=S(=O)([N-]S(=O)(=O)C(F)(F)F)C(F)(F)F
Result block: 1.47

* * *

# Method: activity coefficient (dimensionless); of the first substance listed, at infinite dilution; xn = mol fraction of the nth substance listed
# Cond: 333 K; 101 kPa; Liquid; Chromatography; x1 = 0
Value kind: activity coefficient
Lab note: write the figure by itself, no unit.

CC#N [acetonitrile] + CCCCCCCC[N+]1(C)CCCC1.O=S(=O)([N-]S(=O)(=O)C(F)(F)F)C(F)(F)F ... 0.39
c1ccncc1 [pyridine] + CCCCCCCC[N+]1(C)CCCC1.O=S(=O)([N-]S(=O)(=O)C(F)(F)F)C(F)(F)F ... 0.39
ClC(Cl)(Cl)Cl [tetrachloromethane] + CCCCCC[N+]1(C)CCCC1.O=S(=O)([N-]S(=O)(=O)C(F)(F)F)C(F)(F)F ... 1.85
C=CCCCC [hex-1-ene] + CCCCCCCC[N+]1(C)CCCC1.O=S(=O)([N-]S(=O)(=O)C(F)(F)F)C(F)(F)F ... 3.02

Query block: Provide measured activity coefficient value, entry: CCCO [propan-1-ol] + CCCCCC[N+]1(C)CCCC1.O=S(=O)([N-]S(=O)(=O)C(F)(F)F)C(F)(F)F
Result block: 1.64

* * *

# Method: activity coefficient (dimensionless); of the first substance listed, at infinite dilution; xn = mol fraction of the nth substance listed
# Cond: 322.9 K; 101 kPa; Liquid; Chromatography; x1 = 0
Listing: activity coefficient of selected compounds
Lab note: write the figure by itself, no unit.

C1CCCCCC1 [cycloheptane] + CCCCCC[N+]1(C)CCCC1.O=S(=O)([N-]S(=O)(=O)C(F)(F)F)C(F)(F)F ... 14
ClCCl [dichloromethane] + CCCCCC[N+]1(C)CCCC1.O=S(=O)([N-]S(=O)(=O)C(F)(F)F)C(F)(F)F ... 0.31

Query block: Provide measured activity coefficient value, entry: C=CCCCC [hex-1-ene] + CCCCCC[N+]1(C)CCCC1.O=S(=O)([N-]S(=O)(=O)C(F)(F)F)C(F)(F)F
Result block: 4.56

Query block: Provide measured activity coefficient value, entry: CCCCCCCCCCC [undecane] + CCCCCC[N+]1(C)CCCC1.O=S(=O)([N-]S(=O)(=O)C(F)(F)F)C(F)(F)F
Result block: 34.4

Query block: Provide measured activity coefficient value, entry: CCOCC [diethyl ether] + CCCCCC[N+]1(C)CCCC1.O=S(=O)([N-]S(=O)(=O)C(F)(F)F)C(F)(F)F
Result block: 1.56

Query block: Provide measured activity coefficient value, entry: C[N+](=O)[O-] [nitromethane] + CCCCCC[N+]1(C)CCCC1.O=S(=O)([N-]S(=O)(=O)C(F)(F)F)C(F)(F)F
Result block: 0.57

Query block: Provide measured activity coefficient value, entry: C1COCCO1 [1,4-dioxane] + CCCCCC[N+]1(C)CCCC1.O=S(=O)([N-]S(=O)(=O)C(F)(F)F)C(F)(F)F
Result block: 0.58
